// data source = patent US3931407A

Tested on: writhing induced in mice by 2-phenyl-1,4-benzoquinone
procedure details: Phenylquinone (2-phenyl-1,4-benzoquinone) writhing in mice, analgesic activity
Assay type: in vivo
condition details: Mus musculus; dose producing 50% reduction in number of writhes vs non-treated controls; mice; read-out: Phenylquinone writhing-mice ED50
parameter measured: ED50 (mg/kg)

• O=C(O)c1cc(-n2c(-c3ccccc3)cc3c2CCCC3)ccc1O = 17
• O=C(O)c1cc(-n2c(-c3ccccc3)cc3c4ccccc4ccc32)ccc1O = 16.5
• CC(=O)Oc1ccc(-n2c(-c3ccccc3)cc3c2CCc2ccccc2-3)cc1C(=O)O = 16.5
• O=C(O)c1cc(-n2c(-c3ccccc3)cc3c2CCc2ccccc2-3)ccc1O = 10
• O=C(O)c1cc(-n2c(-c3ccccc3)cc3c2CCC3)ccc1O = 10
• O=C(O)c1cc(-n2c(-c3ccccc3)cc3c2CCCCC3)ccc1O = 10
• CCCCC1C(=O)N(c2ccccc2)N(c2ccccc2)C1=O [Phenylbutazone, reference compound] = 89

====

The entries below come with measured TD50 at 7 h values attached.
procedure details: in vivo
condition details: rat, po
Description: A common but undesirable side effect of anti-inflammatory agents is the production of gastric irritation in mammals. […] Groups of male or female rats (Wistar, Long Evans or Charles River), 150-180 gm, are utilized for this assay using 10 animals per dose group. […] In the table, gastric irritability is expressed as ID50, the dose (mg/kg) of compound producing irritation in 50 percent of the animals after seven hours.
parameter measured: TD50 at 7 h (mg/kg)

- CCCCC1C(=O)N(c2ccccc2)N(c2ccccc2)C1=O [Phenylbutazone, reference compound]: 75
- O=C(O)c1cc(-n2c(-c3ccccc3)cc3c2CCC3)ccc1O: 125
- O=C(O)c1cc(-n2c(-c3ccccc3)cc3c2CCCC3)ccc1O: 130

====

The entries below come with measured inhibition in vivo at 50 mg/kg values attached.
System: adjuvant-induced arthritis in rats
procedure details: Adjuvant-induced arthritis in rats
Assay type: in vivo
condition details: Rattus norvegicus, 504 h; 50 mg/kg/day; rats; day 21; read-out: % Inhibition of Edema on Day 21, Non-Injected Paw
parameter measured: inhibition in vivo at 50 mg/kg (%)

• O=C(O)c1cc(-n2c(-c3ccccc3)cc3c2CCCC3)ccc1O = 72
• CC(=O)Oc1ccc(-n2c(-c3ccccc3)cc3c2CCc2ccccc2-3)cc1C(=O)O = 68
• O=C(O)c1cc(-n2c(-c3ccccc3)cc3c2CCc2ccccc2-3)ccc1O = 81
• O=C(O)c1cc(-n2c(-c3ccccc3)cc3c4ccccc4ccc32)ccc1O = 70
• O=C(O)c1cc(-n2c(-c3ccccc3)cc3c2CCCC3)ccc1S = 80
• CCCCC1C(=O)N(c2ccccc2)N(c2ccccc2)C1=O [Phenylbutazone, reference compound] = 71

====

procedure details: Gastric irritation assay in fasted rats
condition details: rat, in vivo, po
parameter measured: TD50 at 7 h (mg/kg)

- CC(=O)Oc1ccccc1C(=O)O [Aspirin, reference compound]: 42

====

The entries below come with measured inhibition in vivo at 100 mg/kg values attached.
Test system: adjuvant-induced arthritis in rats
procedure details: Adjuvant-induced arthritis in rats
Format: in vivo
condition details: Rattus norvegicus, 504 h; 100 mg/kg/day; rats; day 21; read-out: % Inhibition of Edema on Day 21, Non-Injected Paw
parameter measured: inhibition in vivo at 100 mg/kg (%)

- O=C(O)c1cc(-n2c(-c3ccccc3)cc3c2CCCC3)ccc1O: 80
- O=C(O)c1cc(-n2c(-c3ccccc3)cc3c2CCC3)ccc1O: 75
- O=C(O)c1cc(-n2c(-c3ccc(F)cc3)cc3c2CCCC3)ccc1O: 64
- CC(=O)Oc1ccc(-n2c(-c3ccccc3)cc3c2CCc2ccccc2-3)cc1C(=O)O: 93
- O=C(O)c1cc(-n2c(-c3ccccc3)cc3c2CCCCC3)ccc1O: 90

====

procedure details: in vivo
condition details: rat, po
The entries below come with measured TD50 at 7 h values attached.
parameter measured: TD50 at 7 h

• O=C(O)c1cc(-n2c(-c3ccccc3)cc3c2CCCCC3)ccc1O = > 200 mg/kg
• O=C(O)c1cc(-n2c(-c3ccccc3)cc3c2CCc2ccccc2-3)ccc1O = 300 to 350 mg/kg
• CC(=O)Oc1ccc(-n2c(-c3ccccc3)cc3c2CCc2ccccc2-3)cc1C(=O)O = > 300 mg/kg
• O=C(O)c1cc(-n2c(-c3ccccc3)cc3c4ccccc4ccc32)ccc1O = > 200 mg/kg
